Below, each entry is listed alongside its reported Delta BG.
test system: Rattus norvegicus; test: Maximum % decrease of blood glucose (deltaBG) was observed within 4 hour after administration orally at 0.5 mg/kg dose to fasted adult female rats versus a control group; assay type: functional; settings: route oral
Quote the value and follow it with the unit of measurement.

Below: 3 compounds and their reported Delta BG.
CCCC(NC(=O)Cc1ccc(C(=O)O)c(OCC)c1)c1ccccc1N1CCCCC1 (stereo not drawn) | -35%
CC(C)C(NC(=O)Cc1ccc(C(=O)O)cc1)c1ccccc1N1CCCCC1 (stereo not drawn) | -18%
CCOc1cc(CC(=O)NC(CC2CCCCCC2)c2ccccc2N2CCCCC2)ccc1C(=O)O (stereo not drawn) | -19%

Now turn to the next compound.
Look up Delta BG: CCCC(NC(=O)Cc1ccc(C(=O)O)cc1)c1ccccc1N1CCCCC1 (stereo not drawn) -18%
